Test: Solvent solubility in water
Assay type: physicochemical
Conditions: 20 g solvent mixed with 20 g water, phases separated 24 hours, water layer tested by gas chromatography
quantity.measured: Solvent solubility in water (wt %)

compound: CCC(C)OC(=O)c1ccccc1 (stereo not shown) [Solvent E1, Secondary butyl benzoate]
quantity.measured: Solvent solubility in water
recorded.result: 0.008

[a] CC(=O)OCCCCCC(C)C [Solvent C7, isooctyl acetate]
[b] CCC(C)OC(=O)c1ccc(C(=O)OC(C)CC)o1 (stereo not shown) [Solvent C1, Di-sec butyl furan-2,5-dicarboxylate, reference compound]
Enquiry: Between a and b , whose recorded Solvent solubility in water is greater? Output the label that corresponds to your choice.
Return: a

Source of measurements: patent US20240268381A1
